// data source = ChEMBL document CHEMBL4725468

- TEST SYSTEM: Bromodomain-containing protein 4 (Homo sapiens)
- ASSAY NOTES: Inhibition of BRD4 bromodomain1 (unknown origin) using peptide histone H4 (SGRGACKGGACKGLGAC-KGGAACKRHGSGSK-biotin) as substrate incubated for 15 mins followed by substrate addition measured after 1 hr by alphascreen assay
VALUE TYPE: pIC50
Answers are plain numbers, as −log10 of the molar value.

Cc1noc(C)c1-c1ccc2c(c1)C(c1ccccc1)N(CCCCCCN1C(=O)N(C)c3ccc(-c4c(C)noc4C)cc3C1c1ccccc1)C(=O)N2C (stereo not drawn) : 7.38
Cc1noc(C)c1-c1ccc2c(c1)C(c1ccccc1)N(Cc1cn(CCOCCn3cc(CN4C(=O)N(C)c5ccc(-c6c(C)noc6C)cc5C4c4ccccc4)nn3)nn1)C(=O)N2C (stereo not drawn) : 8.38
Cc1noc(C)c1-c1ccc2c(c1)C(c1ccccc1)N(CCOCCOCCN1C(=O)N(C)c3ccc(-c4c(C)noc4C)cc3C1c1ccccc1)C(=O)N2C (stereo not drawn) : 7.51
Cc1noc(C)c1-c1ccc2c(c1)C(c1ccccc1)NC(=O)N2C (stereo not drawn) : 7.49
Cc1noc(C)c1-c1ccc2c(c1)C(c1ccccc1)N(CCOCCOCCOCCN1C(=O)N(C)c3ccc(-c4c(C)noc4C)cc3C1c1ccccc1)C(=O)N2C (stereo not drawn) : 7.72

Now consider a different molecule.
Task: Find the measured pIC50: item Cc1noc(C)c1-c1ccc2c(c1)C(c1ccccc1)N(CCCCCN1C(=O)N(C)c3ccc(-c4c(C)noc4C)cc3C1c1ccccc1)C(=O)N2C (stereo not drawn) , target or system Bromodomain-containing protein 4 (Homo sapiens).
Output: 7.25
